# MEASURED_ON: Type I 5α-Reductase from Human Scalp (Homo sapiens, UniProt P18405)
# Construct: Scalp punch biopsies from graft recipient sites were obtained from human hair transplant procedures; from tissue; host or cells: human scalp punch biopsies (hair transplant graft recipient sites), homogenate, 100,000×g pellet
# Sequence (P18405 1-259): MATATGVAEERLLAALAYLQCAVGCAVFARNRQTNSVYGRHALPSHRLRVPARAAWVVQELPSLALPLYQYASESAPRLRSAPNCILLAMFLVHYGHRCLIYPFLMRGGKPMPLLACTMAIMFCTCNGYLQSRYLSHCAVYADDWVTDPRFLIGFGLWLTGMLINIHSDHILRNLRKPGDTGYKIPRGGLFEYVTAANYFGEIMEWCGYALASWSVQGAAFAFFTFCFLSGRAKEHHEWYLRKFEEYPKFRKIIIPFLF
# ASSAY_REMARKS: Human Type I 5α-reductase assay (conversion of [3H]-testosterone to 5α-reduced metabolites)
# Format: biochemical
# ASSAY_SETUP: pH 7.5, 0.3 μM; 50 nM [3H]-testosterone, pH 7.5, 25°, 180 min; compared to control reaction mixtures; read-out: percent inhibition of Type I AR
QUANTITY_NAME: inhibition at 0.3 µM (%)

CN1C(=O)CC[C@]2(C)c3ccc(-c4ccc(F)c(F)c4F)cc3CC[C@@H]12
94
CCCN(CC1CC1)c1ccc(-c2ccc3c(c2)CC[C@H]2N(C)C(=O)CC[C@]32C)c2ccccc12
31

I = CN1C(=O)CC[C@]2(C)c3ccc(-c4ccc5ncccc5c4)cc3CC[C@@H]12
II = CN1C(=O)CC[C@]2(C)c3ccc(-c4ccccc4F)cc3CC[C@@H]12
Identify the entry with the larger inhibition at 0.3 µM. Options: I and II Mark your answer with the label of the selected entry. II
(II: 84%, I: 51%)

P = COc1ccc(-c2c(-c3ccccc3)c(Sc3ccc4c(c3)CC[C@H]3N(C)C(=O)CC[C@]43C)nc3ccccc23)cc1
Q = CN1C(=O)CC[C@]2(C)c3ccc(-c4cccc5cccnc45)cc3CC[C@@H]12
// compare measured inhibition at 0.3 µM, left P , right Q , return larger Refer to your chosen item by its label in the answer. P
(P: 61%, Q: 42%)

I = Cc1ccc(Sc2ccc3c(c2)CC[C@H]2NC(=O)CC[C@]32C)cc1
II = CN1C(=O)CC[C@]2(C)c3ccc(Sc4ccc5ccccc5c4)cc3CC[C@@H]12
Could you check which of I and II has a smaller value for inhibition at 0.3 µM? Answer with the label corresponding to your selection. I

====

# MEASURED_ON: Type I 5α-Reductase from Human Scalp (Homo sapiens, UniProt P18405)
# Construct: Scalp punch biopsies from graft recipient sites were obtained from human hair transplant procedures; from tissue; host or cells: human scalp punch biopsies (hair transplant graft recipient sites), homogenate, 100,000×g pellet
# ASSAY_REMARKS: Human Type I 5α-reductase assay (conversion of [3H]-testosterone to 5α-reduced metabolites)
# Assay type: biochemical
# ASSAY_SETUP: pH 7.5, 0.3 μM; 50 nM [3H]-testosterone, pH 7.5, 25°, 180 min; compared to control reaction mixtures; read-out: percent inhibition of Type I AR
QUANTITY_NAME: inhibition at 0.3 µM (%)

Take a look at these entries with their results.
CN1C(=O)CC[C@]2(C)c3ccc(-c4ccc(S(N)(=O)=O)cc4)cc3CC[C@@H]12 [Example 220]
67
CN1C(=O)CC[C@]2(C)c3ccc(-c4cccc(NC(=O)C(C)(C)C)c4)cc3CC[C@@H]12 [Example 274]
34
CN1C(=O)CC[C@]2(C)c3ccc(-c4cc(Cl)sc4Cl)cc3CC[C@@H]12 [Example 132]
87
COc1ccccc1Sc1ccc2c(c1)CC[C@H]1N(C)C(=O)CC[C@]21C [Example 104]
89
CN1C(=O)CC[C@]2(C)c3ccc(-c4cc(C(F)(F)F)ccc4F)cc3CC[C@@H]12 [Example 211]
70

I = CN1C(=O)CC[C@]2(C)c3ccc(Sc4ccc5cc(F)ccc5n4)cc3CC[C@@H]12 [Example 173]
II = C[C@]12CCC(=O)N[C@@H]1CCc1cc(Sc3cccc(Cl)c3)ccc12 [Example 8]
III = CN1C(=O)CC[C@]2(C)c3ccc(CC(=O)Nc4ccccc4)cc3CC[C@@H]12 [Example 277]
IV = CN1C(=O)CC[C@]2(C)c3ccc(Sc4cccc5cccnc45)cc3CC[C@@H]12 [Example 110]
Arrange items by their inhibition at 0.3 µM values in increasing order. Field: ranking. Enter the labels in the order requested. II, III, I, IV

A = CN1C(=O)CC[C@]2(C)c3ccc(-c4cccc(C(F)(F)F)c4F)cc3CC[C@@H]12 [Example 208]
B = CN1C(=O)CC[C@]2(C)c3ccc(-c4nnnn4-c4ccccc4)cc3CC[C@@H]12 [Example 258]
Please compare: A and B . Report which one has the smaller inhibition at 0.3 µM value. Write down the label of the entry you select. B
(B: 27%, A: 77%)
